target: AarF domain-containing protein kinase 1 (Homo sapiens); also: in the data inactive means no Kd found up to 30 µM
Sequence (Q86TW2 whole entry, the tested form may be a part): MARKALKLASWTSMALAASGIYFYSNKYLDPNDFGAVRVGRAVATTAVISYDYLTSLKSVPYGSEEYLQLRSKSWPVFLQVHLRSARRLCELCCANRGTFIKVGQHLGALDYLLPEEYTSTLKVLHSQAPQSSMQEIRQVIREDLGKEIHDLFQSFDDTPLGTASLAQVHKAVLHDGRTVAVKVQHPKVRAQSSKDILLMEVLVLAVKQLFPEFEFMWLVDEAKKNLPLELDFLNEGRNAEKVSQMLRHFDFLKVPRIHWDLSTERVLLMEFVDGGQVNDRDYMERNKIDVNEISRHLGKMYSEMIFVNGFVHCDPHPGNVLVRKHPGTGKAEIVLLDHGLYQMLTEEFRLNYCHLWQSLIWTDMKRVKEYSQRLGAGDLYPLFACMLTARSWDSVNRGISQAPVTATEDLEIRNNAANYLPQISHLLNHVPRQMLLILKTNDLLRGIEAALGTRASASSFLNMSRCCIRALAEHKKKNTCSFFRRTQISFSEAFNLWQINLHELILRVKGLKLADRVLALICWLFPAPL
Active and inactive are the calls of the source.
Outcome (select one): label 1 = active, label 0 = inactive

[
  {
    "MOLECULE": "COc1cc2c(N3CCN(C(=O)Nc4ccc(OC(C)C)cc4)CC3)ncnc2cc1OCCCN1CCCCC1",
    "CLASS_NAME": "label 0"
  }
]

Asked: Recorded call for COc1cccc(Nc2ncnn3ccc(CN4CC[C@@H](N)[C@H](O)C4)c23)c1 ?
Given back: label 0

Asked: Now try Cn1cnc2c(F)c(Nc3ccc(Br)cc3Cl)c(C(=O)NOCCO)cc21 .
Given back: label 0

Asked: Now try O[C@H]1CC[C@H](Nc2ncc3nc(Nc4c(F)cc(F)cc4F)n([C@H]4CCOC4)c3n2)CC1 .
Given back: label 0

Asked: Now try O=C(NC[C@H](O)CO)c1ccncc1Nc1ccc(I)cc1F .
Given back: label 0

====

Molecular target: Breakpoint cluster region protein (Homo sapiens); also: in the data inactive means no Kd found up to 30 µM
Sequence (P11274 whole entry): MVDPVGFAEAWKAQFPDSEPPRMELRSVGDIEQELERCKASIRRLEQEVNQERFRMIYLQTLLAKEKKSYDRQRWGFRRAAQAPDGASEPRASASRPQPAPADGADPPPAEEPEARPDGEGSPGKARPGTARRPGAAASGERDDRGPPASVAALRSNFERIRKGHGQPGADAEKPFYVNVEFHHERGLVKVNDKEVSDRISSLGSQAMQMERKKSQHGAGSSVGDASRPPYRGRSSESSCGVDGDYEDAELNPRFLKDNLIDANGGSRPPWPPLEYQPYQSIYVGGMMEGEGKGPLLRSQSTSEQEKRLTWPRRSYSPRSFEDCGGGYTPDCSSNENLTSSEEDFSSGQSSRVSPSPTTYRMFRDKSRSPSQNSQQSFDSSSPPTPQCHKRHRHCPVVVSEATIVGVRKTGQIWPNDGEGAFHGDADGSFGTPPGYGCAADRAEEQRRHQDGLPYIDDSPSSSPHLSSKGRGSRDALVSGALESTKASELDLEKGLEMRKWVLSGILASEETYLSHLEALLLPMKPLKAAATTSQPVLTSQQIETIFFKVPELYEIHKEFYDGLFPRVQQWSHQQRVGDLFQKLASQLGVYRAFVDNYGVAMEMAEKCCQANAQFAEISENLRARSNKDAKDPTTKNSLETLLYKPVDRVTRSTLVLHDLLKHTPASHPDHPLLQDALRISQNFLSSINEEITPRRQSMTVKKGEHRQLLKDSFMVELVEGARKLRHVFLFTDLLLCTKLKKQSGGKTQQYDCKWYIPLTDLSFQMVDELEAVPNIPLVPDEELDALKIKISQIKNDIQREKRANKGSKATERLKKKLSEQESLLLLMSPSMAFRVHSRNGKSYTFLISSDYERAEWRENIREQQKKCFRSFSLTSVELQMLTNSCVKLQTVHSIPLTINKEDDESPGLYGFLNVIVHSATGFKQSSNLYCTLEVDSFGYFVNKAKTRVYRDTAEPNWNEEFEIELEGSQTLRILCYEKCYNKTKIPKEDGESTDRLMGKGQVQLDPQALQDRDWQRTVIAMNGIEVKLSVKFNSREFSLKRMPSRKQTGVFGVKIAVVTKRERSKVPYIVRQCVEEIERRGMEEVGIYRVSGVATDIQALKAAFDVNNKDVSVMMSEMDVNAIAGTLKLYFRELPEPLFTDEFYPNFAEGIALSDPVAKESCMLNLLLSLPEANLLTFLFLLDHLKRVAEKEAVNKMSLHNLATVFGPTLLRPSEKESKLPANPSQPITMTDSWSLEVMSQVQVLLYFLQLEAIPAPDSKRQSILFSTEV
Activity calls are given as the source filed them.
Outcome (select one): active, inactive

[
  {
    "MOLECULE": "S=C(NCc1ccc2c(c1)OCO2)N1CCN(c2ncnc3c2oc2ccccc23)CC1",
    "CLASS_NAME": "inactive"
  },
  {
    "MOLECULE": "Cc1ccc(C(=O)Nc2ccc(Oc3cc4cnn(C)c4cc3-c3cn[nH]c3)c(F)c2)c(=O)n1-c1ccc(F)cc1",
    "CLASS_NAME": "inactive"
  },
  {
    "MOLECULE": "O=C(Nc1ccc(OC(F)(F)F)cc1)c1sccc1NCc1ccnc2ccccc12",
    "CLASS_NAME": "inactive"
  },
  {
    "MOLECULE": "Cc1cc(-c2cc(OC(=O)c3ccccc3)ccc2Cl)cc2nnc(Nc3ccc(OCCN4CCCC4)cc3)nc12",
    "CLASS_NAME": "active"
  },
  {
    "MOLECULE": "CCN1CCN(Cc2ccc(Nc3ncc(F)c(-c4cc(F)c5nc(C)n(C(C)C)c5c4)n3)nc2)CC1",
    "CLASS_NAME": "inactive"
  },
  {
    "MOLECULE": "COc1ccc(-c2ccc3ncc4c(c3c2)n(-c2ccc(N3CCNCC3)c(C(F)(F)F)c2)c(=O)n4C)cn1 [BGT-226 FREE BASE]",
    "CLASS_NAME": "inactive"
  }
]

In the following, a different molecule is considered.
Asked: Recorded call for Cn1c(=O)c(F)c(Nc2ccc(I)cc2F)c2c(=O)n(C[C@@H](O)CO)cnc21 ?
Given back: inactive

====

molecular target: Probable ATP-dependent RNA helicase DDX6 (Homo sapiens); also: in the data inactive means no Kd found up to 30 µM
Sequence (P26196 whole entry): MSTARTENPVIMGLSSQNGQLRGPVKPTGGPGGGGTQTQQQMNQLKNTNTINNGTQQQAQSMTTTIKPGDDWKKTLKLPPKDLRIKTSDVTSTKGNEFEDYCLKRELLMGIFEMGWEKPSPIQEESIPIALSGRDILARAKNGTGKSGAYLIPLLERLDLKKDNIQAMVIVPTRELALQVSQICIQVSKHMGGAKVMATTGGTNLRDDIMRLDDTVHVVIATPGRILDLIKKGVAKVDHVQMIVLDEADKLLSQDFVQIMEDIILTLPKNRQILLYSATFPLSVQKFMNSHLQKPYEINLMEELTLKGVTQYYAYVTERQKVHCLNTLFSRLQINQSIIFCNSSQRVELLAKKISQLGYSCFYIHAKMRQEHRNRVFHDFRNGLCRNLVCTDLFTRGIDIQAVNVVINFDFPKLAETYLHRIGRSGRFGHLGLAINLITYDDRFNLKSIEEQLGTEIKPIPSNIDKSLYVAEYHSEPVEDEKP
Active and inactive are the calls of the source.
Catalogue of Kd readings, one per entry.

[
  {
    "MOLECULE": "S=C(NCc1ccc2c(c1)OCO2)N1CCN(c2ncnc3c2oc2ccccc23)CC1 [AMUVATINIB]",
    "Kd": "> 30 µM (inactive)"
  }
]

Asked: Look up Kd for this molecule: COc1ccc(-c2ccc3ncc4c(c3c2)n(-c2ccc(N3CCNCC3)c(C(F)(F)F)c2)c(=O)n4C)cn1 [BGT-226 FREE BASE]
Given back: > 30 µM (inactive)

Asked: Now try COc1cc2ncnc3c2cc1OCCCCCN(C)Cc1ccc(Br)cc1N3 [JNJ-26483327] .
Given back: > 30 µM (inactive)

Asked: Now try O=C(NOC[C@H](O)CO)c1ccc(F)c(F)c1Nc1ccc(I)cc1F [MIRDAMETINIB] .
Given back: > 30 µM (inactive)

====

# collection of Kd values tested on Ras-related protein Rab-27A (Homo sapiens, UniProt P51159); also: in the data inactive means no Kd found up to 30 µM
# Sequence (P51159 whole entry): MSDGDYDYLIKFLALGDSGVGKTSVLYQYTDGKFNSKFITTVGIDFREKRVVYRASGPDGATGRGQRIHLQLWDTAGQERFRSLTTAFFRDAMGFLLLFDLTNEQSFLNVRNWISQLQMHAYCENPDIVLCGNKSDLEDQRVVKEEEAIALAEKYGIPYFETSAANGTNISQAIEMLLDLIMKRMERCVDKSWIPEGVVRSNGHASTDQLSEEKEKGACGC
Active and inactive are the calls of the source.

[
  {
    "MOLECULE": "O=S(=O)(c1cccc2c(O)nccc12)N1CCCNCC1 [HYDROXYFASUDIL]",
    "EXPERIMENTAL_TARGET": "Ras-related protein Rab-27A (Homo sapiens, UniProt P51159)",
    "Kd": "> 30 µM (inactive)"
  },
  {
    "MOLECULE": "NC(=O)c1ccc(N(C(N)=O)c2c(F)cccc2F)nc1-c1ccc(F)cc1F",
    "EXPERIMENTAL_TARGET": "Ras-related protein Rab-27A (Homo sapiens, UniProt P51159)",
    "Kd": "> 30 µM (inactive)"
  }
]

We next turn to a different molecule, shown below.
Asked: Look up Kd for this molecule: COc1cccc2cc(-c3nc([C@H]4CC[C@H](C(=O)O)CC4)n4ncnc(N)c34)[nH]c12
Given back: > 30 µM (inactive)

====

target: UniProtKB P55263
Sequence (P55263 whole entry): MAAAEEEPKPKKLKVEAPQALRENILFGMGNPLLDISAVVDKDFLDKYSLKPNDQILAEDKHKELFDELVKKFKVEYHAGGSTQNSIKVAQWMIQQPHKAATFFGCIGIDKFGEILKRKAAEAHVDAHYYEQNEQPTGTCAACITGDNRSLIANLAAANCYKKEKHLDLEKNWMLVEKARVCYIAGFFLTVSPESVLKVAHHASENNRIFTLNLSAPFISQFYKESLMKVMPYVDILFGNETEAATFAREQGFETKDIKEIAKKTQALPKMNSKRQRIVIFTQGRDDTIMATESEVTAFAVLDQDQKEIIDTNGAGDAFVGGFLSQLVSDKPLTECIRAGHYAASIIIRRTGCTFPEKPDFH
Active and inactive are the calls of the source.
Outcome (select one): yes for active, no for inactive

// known answers, use as guide
[
  {
    "MOLECULE": "C=CC(=O)Nc1cc(Nc2nccc(-c3cn(C)c4ccccc34)n2)c(OC)cc1N(C)CCN(C)C",
    "EXPERIMENTAL_TARGET": "UniProtKB P55263",
    "CLASS_NAME": "no"
  },
  {
    "MOLECULE": "CC(C)(O)CC(=O)NCCn1ccc2ncnc(Nc3ccc(Oc4cccc(C(F)(F)F)c4)c(Cl)c3)c21",
    "EXPERIMENTAL_TARGET": "UniProtKB P55263",
    "CLASS_NAME": "no"
  },
  {
    "MOLECULE": "COc1cc(F)c(F)c(Nc2ccc(I)cc2F)c1NS(=O)(=O)C1(C[C@H](O)CO)CC1",
    "EXPERIMENTAL_TARGET": "UniProtKB P55263",
    "CLASS_NAME": "no"
  },
  {
    "MOLECULE": "Cn1cnc2c(F)c(Nc3ccc(Br)cc3Cl)c(C(=O)NOCCO)cc21",
    "EXPERIMENTAL_TARGET": "UniProtKB P55263",
    "CLASS_NAME": "no"
  },
  {
    "MOLECULE": "COc1cccc2cc(-c3nc([C@H]4CC[C@H](C(=O)O)CC4)n4ncnc(N)c34)[nH]c12",
    "EXPERIMENTAL_TARGET": "UniProtKB P55263",
    "CLASS_NAME": "no"
  },
  {
    "MOLECULE": "O=C(NOC[C@H](O)CO)c1ccc(F)c(F)c1Nc1ccc(I)cc1F",
    "EXPERIMENTAL_TARGET": "UniProtKB P55263",
    "CLASS_NAME": "no"
  },
  {
    "MOLECULE": "C[C@]1(O)C[C@@H](c2nc(-c3ccc4ccc(-c5ccccc5)nc4c3)c3c(N)nccn32)C1",
    "EXPERIMENTAL_TARGET": "UniProtKB P55263",
    "CLASS_NAME": "no"
  },
  {
    "MOLECULE": "CN1CCN(c2nc(C3=C(c4c[nH]c5ccccc45)C(=O)NC3=O)c3ccccc3n2)CC1",
    "EXPERIMENTAL_TARGET": "UniProtKB P55263",
    "CLASS_NAME": "no"
  }
]

Asked: Recorded call for S=C(NCc1ccc2c(c1)OCO2)N1CCN(c2ncnc3c2oc2ccccc23)CC1 ?
Given back: no

Asked: Now try Cc1cc(Nc2nc(N[C@@H](C)c3ncc(F)cn3)ncc2Cl)n[nH]1 .
Given back: no

Asked: Now try CC1(C)CNc2cc(NC(=O)c3cccnc3NCc3ccncc3)ccc21 .
Given back: no

Asked: Now try CC1(COc2ccc3c(c2)ncn3-c2ccc3cccc(N4CCC(N)CC4)c3n2)COC1 .
Given back: no

Asked: Now try CN(C)C/C=C/C(=O)Nc1cc2c(Nc3ccc(F)c(Cl)c3)ncnc2cc1O[C@H]1CCOC1 .
Given back: yes
